# target: UniProtKB Q06124
# Sequence (Q06124 whole entry): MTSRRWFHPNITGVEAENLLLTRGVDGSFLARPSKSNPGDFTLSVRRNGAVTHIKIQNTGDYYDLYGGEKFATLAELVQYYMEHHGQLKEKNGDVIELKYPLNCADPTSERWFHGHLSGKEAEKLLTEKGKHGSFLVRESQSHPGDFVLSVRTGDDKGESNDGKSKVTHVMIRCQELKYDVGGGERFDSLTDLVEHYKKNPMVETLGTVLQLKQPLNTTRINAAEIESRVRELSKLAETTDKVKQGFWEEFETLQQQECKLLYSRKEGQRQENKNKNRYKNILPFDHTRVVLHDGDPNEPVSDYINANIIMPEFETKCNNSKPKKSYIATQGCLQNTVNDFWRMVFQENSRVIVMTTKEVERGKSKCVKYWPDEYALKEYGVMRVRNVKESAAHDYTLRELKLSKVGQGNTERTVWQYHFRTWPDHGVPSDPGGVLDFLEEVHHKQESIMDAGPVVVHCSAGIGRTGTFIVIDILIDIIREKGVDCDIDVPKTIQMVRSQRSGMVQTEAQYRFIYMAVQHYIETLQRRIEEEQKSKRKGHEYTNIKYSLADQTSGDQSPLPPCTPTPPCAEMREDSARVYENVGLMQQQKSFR
# assayRemarks: Phosphatase assay (single dose inhibition), DiFMUP substrate
# Type: biochemical
# settings: compound at 0.1 μM (100 nM); SHP2 0.5 nM activated with dPEG8 peptide; DiFMUP 12 μM; relative to DMSO control
# Method: DMSO [0.5% (v/v)] or compounds (100 nM) were added to the mixture and incubated for 30 min at room temperature. […] The experiment is carried out in triplicate. The value for the control sample (DMSO) was set to 100%, and the values for the compound-treated samples were expressed as activity relative to the control sample.
quantityName: inhibition at 0.1 µM (%)
Just the number please, in %, no unit attached.

As a guide, the following entries are already answered.
[
  {
    "molecule": "Nc1nc(N2CCC3(CC2)COC[C@H]3N)cnc1Sc1cccc2[nH]cc(F)c12",
    "unitString": "%",
    "inhibition at 0.1 µM": 71
  },
  {
    "molecule": "Nc1nc(N2CCC3(CC2)CC2CC2C3N)cnc1Sc1ccnc(N)c1Cl (stereo not shown)",
    "unitString": "%",
    "inhibition at 0.1 µM": 75
  },
  {
    "molecule": "CC(=O)n1ccc2c(Sc3ncc(N4CCC5(CC4)COC[C@H]5N)nc3N)cccc21",
    "unitString": "%",
    "inhibition at 0.1 µM": 43
  }
]

Attention now turns to another entry.
Query :: Provide only the value of recorded inhibition at 0.1 µM for CC(=O)N1CCc2c(Sc3ncc(N4CCC5(CC4)COC[C@H]5N)nc3N)cccc21
Result :: 31
